assay-target: T1, HCV Core1-169 recombinant antigen (hepatitis C virus (HCV-1), UniProt P26664 1-169)
T1 sequence: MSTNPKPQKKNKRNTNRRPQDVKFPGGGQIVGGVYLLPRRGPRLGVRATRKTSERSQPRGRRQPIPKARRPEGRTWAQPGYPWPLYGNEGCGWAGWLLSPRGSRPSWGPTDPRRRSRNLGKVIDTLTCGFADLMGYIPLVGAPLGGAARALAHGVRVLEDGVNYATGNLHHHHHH
protocol-details: sandwich EIA, 25 ng/ml core1-169; capture mAb 208A-207-271
# OD492 nm per entry
Write the number in OD492 without appending the unit.

{"columns": ["binder", "unit-tag", "OD492 nm"],
 "data": [
  ["HCV 208A-293 monoclonal antibody (antibody, V domains shown) VH: EVQLQQSGPELVKPGASVKISCKASGFTFTEYAMHWMKQSHGKSLEWIGGINPTNGDAIYNQKFKDKAKLTVDRSSSTAYMELRSLTSDDSALFYCARRELDYFPSWGQGTTLTVSS VL: DIVLTQSPASLIVSLGQRATISCRASQSVSTSRFSYVHWIQQKPGQPPKLLIKYASNLESGVPVRFSGSGSGTDFILNIHPVEEEDTATYFCQHSWEFPFTFGSGTKLEIKR", "OD492", 0.39],
  ["208B-395-334 monoclonal antibody (antibody, V domains shown) VH: QVQLQQSGAGLAKPGASVKMSCKASGYTFTANKMHWTKQRPGQGLEWIGYIDPSSGYTQYNHKIQDKATLTADTSSSTAYMQLSSLTFEDSAVYYCTNFAYWGQGTLVTVSA VL: DIVLTQSPATLSVTPGDRVSLSCRASQRIYNYLHWYQQKSHESPRLLIKYASQSISGIPSRFSGSGSGTDFILTINSVETEDFGMYFCQQSNSWPLTFGAGTKLELRR", "OD492", 0.2],
  ["208A-207-271 monoclonal antibody (antibody, V domains shown) VH: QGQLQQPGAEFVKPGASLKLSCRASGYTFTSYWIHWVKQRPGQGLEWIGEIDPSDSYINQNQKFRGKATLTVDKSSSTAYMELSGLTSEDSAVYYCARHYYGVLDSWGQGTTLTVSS VL: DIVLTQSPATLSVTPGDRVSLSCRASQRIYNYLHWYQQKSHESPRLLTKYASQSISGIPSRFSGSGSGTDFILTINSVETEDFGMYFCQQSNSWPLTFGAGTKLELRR", "OD492", 0.36]
]}

Could you now consider this next binder?
Query :: Give the reported OD492 nm for this binder. HCV 208A-692 monoclonal antibody (antibody, V domains shown) VH: QGQMQQSGAELAKPGASVKLSCKTSGFTFSSSYISWLKQKPGQSLEWIAWIFAGTGNTNYNQKFTDKAQLTVDTSSSTAYMQLSSLTTEDSAIYYCAISGTGFTYWGQGTLVTVSA VL: EVLMTQSPLSLPVSLGDQASISCRSSQSLEHSNGNTYLEWFLQRPGQPPKLLIYKVSSRFSGVPDRFSGSGSGTDFTLKISRVEAEDLGVYYCFQGSHVPFTFGSGTKLAIKR
Result :: 0.39

The values you see were collected from patent US20170052184A1.
